Ref: patent US5091305A

# Test system: bile acid sulfate sulfatase
# Experiment: Activity of the present Enzyme on substrates (coupled β-hydroxysteroid dehydrogenase/NADH assay, absorbance at 340 nm)
# Type: biochemical, Pseudomonas testosteroni
# Experimental Parameters: substrate; lithocholic acid 3α-sulfate = 100
Value Type: Relative activity (substrate specificity) (%)
The reply should be a number in %, with the unit left off.

# Compound, Observed Result
rows = [
    ("C[C@H](CCC(=O)O)[C@H]1CC[C@H]2[C@@H]3CC[C@@H]4C[C@H](OS(=O)(=O)O)CC[C@]4(C)[C@H]3CC[C@]12C [Lithocholic acid 3α-sulfate]", 100),
]

Query: Give its Relative activity (substrate specificity) value. Item: C[C@H](CCC(=O)O)[C@H]1CC[C@H]2[C@@H]3CC=C4C[C@@H](OS(=O)(=O)O)CC[C@]4(C)[C@H]3CC[C@]12C [3β-Hydroxy-5-cholenic acid 3-sulfate]
Response: 0

Query: Give its Relative activity (substrate specificity) value. Item: C[C@H](CCC(=O)NCCS(=O)(=O)O)[C@H]1CC[C@H]2[C@@H]3CC[C@@H]4C[C@H](OS(=O)(=O)O)CC[C@]4(C)[C@H]3CC[C@]12C [Taurolithocholic acid 3α-sulfate]
Response: 2

Query: Give its Relative activity (substrate specificity) value. Item: C[C@H](CCC(=O)O)[C@H]1CC[C@H]2[C@@H]3[C@H](O)C[C@@H]4C[C@H](OS(=O)(=O)O)CC[C@]4(C)[C@H]3C[C@H](O)[C@]12C [Cholic acid 3α-sulfate]
Response: 238

Query: Give its Relative activity (substrate specificity) value. Item: C[C@H](CCC(=O)NCC(=O)O)[C@H]1CC[C@H]2[C@@H]3CC[C@@H]4C[C@H](OS(=O)(=O)O)CC[C@]4(C)[C@H]3CC[C@]12C [Glycolithocholic acid 3α-sulfate]
Response: 11
